The reported numbers originate from ChEMBL document CHEMBL1155976.

system: Mus musculus; experiment: Agonist activity at 5HT1A receptor in Swiss albino mouse assessed as decrease in rectal temperature at 10 mg/kg, ip after 30 mins in presence of WAY 100635 administered 15 mins before drug challenge; assay type: functional, organism-based; parameters: dose 10 mg/kg
// reported deltaT for each item listed
Response body: numeric value in °C, unit text excluded.

Use these answered entries as a reference point.
# smiles.entry, readout.units, deltaT
rows = [
    ("COc1ccccc1N1CCN(CCCn2c(-c3ccccc3)cn3c4c(=O)n(C)c(=O)n(C)c4nc23)CC1", "°C", -0.9),
    ("Cn1c(=O)c2c(nc3n(CCCN4CCN(c5ccccc5)CC4)ccn23)n(C)c1=O", "°C", -0.3),
    ("Cc1cn2c3c(=O)n(C)c(=O)n(C)c3nc2n1CCCN1CCN(c2cccc(Cl)c2)CC1", "°C", -0.9),
]

// `COc1ccccc1N1CCN(CCCn2c(C)cn3c4c(=O)n(C)c(=O)n(C)c4nc23)CC1` : deltaT value = -1
